B1: glmS ribozyme (parent)
chain: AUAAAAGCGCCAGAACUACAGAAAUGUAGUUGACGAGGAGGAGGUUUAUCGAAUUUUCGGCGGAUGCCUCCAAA

# Variants of: B1
# Test Details: kcat; higher = faster cleavage; RNA array
# Condition Details: with glucosamine-6-phosphate
Fewer inactive variants are shown than the library holds.
Measurement Kind: kcat

[[record]]
mut = "G32C U56G"
measurement_kind = "kcat"
recorded_measurement = "5.69e-05 s⁻¹"

[[record]]
mut = "G66U C67A"
measurement_kind = "kcat"
recorded_measurement = "0.00338 s⁻¹"

[[record]]
mut = "A33G A36C"
measurement_kind = "kcat"
recorded_measurement = "1.58e-05 s⁻¹"

[[record]]
mut = "U56G U65C"
measurement_kind = "kcat"
recorded_measurement = "0.000622 s⁻¹"

[[record]]
mut = "C61A C70A"
measurement_kind = "kcat"
recorded_measurement = "< 1e-05 s⁻¹"

[[record]]
mut = "C61A A64G"
measurement_kind = "kcat"
recorded_measurement = "< 1e-05 s⁻¹"

[[record]]
mut = "U46G U47A"
measurement_kind = "kcat"
recorded_measurement = "0.0123 s⁻¹"

[[record]]
mut = "A39C U69C"
measurement_kind = "kcat"
recorded_measurement = "0.000195 s⁻¹"

[[record]]
mut = "G38A C70G"
measurement_kind = "kcat"
recorded_measurement = "1.82e-05 s⁻¹"

[[record]]
mut = "C70G C71G"
measurement_kind = "kcat"
recorded_measurement = "3.62e-05 s⁻¹"

[[record]]
mut = "U47G A52U"
measurement_kind = "kcat"
recorded_measurement = "0.000286 s⁻¹"

[[record]]
mut = "U47C U56G"
measurement_kind = "kcat"
recorded_measurement = "0.00245 s⁻¹"

[[record]]
mut = "A6C G66A"
measurement_kind = "kcat"
recorded_measurement = "8.29e-05 s⁻¹"

[[record]]
mut = "C16G C67A"
measurement_kind = "kcat"
recorded_measurement = "0.00104 s⁻¹"

[[record]]
mut = "G59U U65G"
measurement_kind = "kcat"
recorded_measurement = "< 1e-05 s⁻¹"

[[record]]
mut = "U54A C70A"
measurement_kind = "kcat"
recorded_measurement = "0.000115 s⁻¹"

[[record]]
mut = "G26U U65G"
measurement_kind = "kcat"
recorded_measurement = "0.00661 s⁻¹"

[[record]]
mut = "U46G U65A"
measurement_kind = "kcat"
recorded_measurement = "0.00378 s⁻¹"

[[record]]
mut = "G43C C68U"
measurement_kind = "kcat"
recorded_measurement = "0.000722 s⁻¹"

[[record]]
mut = "G32U A52G"
measurement_kind = "kcat"
recorded_measurement = "8.92e-05 s⁻¹"

[[record]]
mut = "A12G G66A"
measurement_kind = "kcat"
recorded_measurement = "0.000586 s⁻¹"

[[record]]
mut = "U31C C50A"
measurement_kind = "kcat"
recorded_measurement = "< 1e-05 s⁻¹"

[[record]]
mut = "C16A G32U"
measurement_kind = "kcat"
recorded_measurement = "0.000568 s⁻¹"

[[record]]
mut = "A15U U45G"
measurement_kind = "kcat"
recorded_measurement = "0.000918 s⁻¹"

[[record]]
mut = "G29A C67A"
measurement_kind = "kcat"
recorded_measurement = "0.00104 s⁻¹"

[[record]]
mut = "U31A U56C"
measurement_kind = "kcat"
recorded_measurement = "0.00331 s⁻¹"

[[record]]
mut = "A6U U45G"
measurement_kind = "kcat"
recorded_measurement = "0.000193 s⁻¹"

[[record]]
mut = "U46A A53U"
measurement_kind = "kcat"
recorded_measurement = "0.00158 s⁻¹"

[[record]]
mut = "A15C G40C"
measurement_kind = "kcat"
recorded_measurement = "0.000353 s⁻¹"

[[record]]
mut = "C16A A53G"
measurement_kind = "kcat"
recorded_measurement = "0.00159 s⁻¹"

[[record]]
mut = "G29C A48C"
measurement_kind = "kcat"
recorded_measurement = "1.23e-05 s⁻¹"

[[record]]
mut = "C16U G29A"
measurement_kind = "kcat"
recorded_measurement = "0.0165 s⁻¹"

[[record]]
mut = "U31A A33U"
measurement_kind = "kcat"
recorded_measurement = "2.01e-05 s⁻¹"

[[record]]
mut = "G29U A39C"
measurement_kind = "kcat"
recorded_measurement = "0.00147 s⁻¹"

[[record]]
mut = "C11U G37C"
measurement_kind = "kcat"
recorded_measurement = "1.18e-05 s⁻¹"

[[record]]
mut = "G41U U46A"
measurement_kind = "kcat"
recorded_measurement = "0.000481 s⁻¹"

[[record]]
mut = "G63A U69A"
measurement_kind = "kcat"
recorded_measurement = "4.23e-05 s⁻¹"

[[record]]
mut = "A6C C8U G35C C58G"
measurement_kind = "kcat"
recorded_measurement = "< 1e-05 s⁻¹"

[[record]]
mut = "C50U U56G"
measurement_kind = "kcat"
recorded_measurement = "1.91e-05 s⁻¹"

[[record]]
mut = "U47A G66U"
measurement_kind = "kcat"
recorded_measurement = "0.00545 s⁻¹"

[[record]]
mut = "A14U A53U"
measurement_kind = "kcat"
recorded_measurement = "0.00789 s⁻¹"

[[record]]
mut = "G32U G63A"
measurement_kind = "kcat"
recorded_measurement = "< 1e-05 s⁻¹"

[[record]]
mut = "U30G U46A G66C"
measurement_kind = "kcat"
recorded_measurement = "0.000292 s⁻¹"

[[record]]
mut = "A53U G60A C70A"
measurement_kind = "kcat"
recorded_measurement = "1.78e-05 s⁻¹"

[[record]]
mut = "A39U U57C"
measurement_kind = "kcat"
recorded_measurement = "0.00022 s⁻¹"

[[record]]
mut = "C50A C70A"
measurement_kind = "kcat"
recorded_measurement = "4.02e-05 s⁻¹"


Data provenance is the supplement of paper PMC7125110.
